Overview of recorded viability at 48 h, 100 µM for various compounds
experiment: MTT cytotoxicity assay, normal breast cells MCF-10A; type: cell-based; conditions: human; MCF-10A normal breast cells, highest concentration; read-out: percentage of cell viability at the highest concentration
ATTRIBUTE MEASURED: viability at 48 h, 100 µM (%)

INSERT INTO assay_data (compound, attribute_measured, result_number) VALUES
  ('C/C(=N\NC(=O)CNC(=O)Cn1nc(Cc2ccccc2)c2ccccc2c1=O)c1ccco1 [Compound 12c]', 'viability at 48 h, 100 µM', 9.6),
  ('Nc1cc(=O)[nH]n1C(=O)CNC(=O)Cn1nc(Cc2ccccc2)c2ccccc2c1=O [Compound 12d]', 'viability at 48 h, 100 µM', 3),
  ('COC(=O)C(NC(=O)CNC(=O)Cn1nc(Cc2ccccc2)c2ccccc2c1=O)C(C)C (stereo not drawn) [Compound 11d]', 'viability at 48 h, 100 µM', 11);

====

ATTRIBUTE MEASURED: melting point

INSERT INTO assay_data (molecule, attribute_measured, result) VALUES
  ('O=C(Cn1nc(Cc2ccccc2)c2ccccc2c1=O)N1CCOCC1 [Compound 6h]', 'melting point', '210 to 212 °C'),
  ('C=CCNC(=O)Cn1nc(Cc2ccccc2)c2ccccc2c1=O [Compound 6f]', 'melting point', '164 to 166 °C'),
  ('O=C(CNC(=O)Cn1nc(Cc2ccccc2)c2ccccc2c1=O)NCc1ccccc1 [Compound 10a]', 'melting point', '186 to 188 °C'),
  ('O=C(Cn1nc(Cc2ccccc2)c2ccccc2c1=O)N1CCCCC1 [Compound 6g]', 'melting point', '192 to 194 °C'),
  ('COC(=O)C(NC(=O)CNC(=O)Cn1nc(Cc2ccccc2)c2ccccc2c1=O)C(C)C (centres unmarked) [Compound 11d]', 'melting point', '190 to 192 °C'),
  ('C/C(=N\NC(=O)CNC(=O)Cn1nc(Cc2ccccc2)c2ccccc2c1=O)c1ccco1 [Compound 12c]', 'melting point', '209 to 210 °C'),
  ('COC(=O)CNC(=O)CNC(=O)Cn1nc(Cc2ccccc2)c2ccccc2c1=O [Compound 11a]', 'melting point', '162 to 164 °C'),
  ('O=C(Cn1nc(Cc2ccccc2)c2ccccc2c1=O)NCC(=O)N1CCOCC1 [Compound 10h]', 'melting point', '148 to 150 °C'),
  ('NNC(=O)CNC(=O)Cn1nc(Cc2ccccc2)c2ccccc2c1=O [Compound 8a]', 'melting point', '202 to 204 °C'),
  ('O=C(Cn1nc(Cc2ccccc2)c2ccccc2c1=O)NCc1ccccc1 [Compound 6a]', 'melting point', '174 to 176 °C'),
  ('C=CCNC(=O)CNC(=O)Cn1nc(Cc2ccccc2)c2ccccc2c1=O [Compound 10f]', 'melting point', '188 to 190 °C');

====

test system: MCF-10A cells; experiment: MTT cytotoxicity assay, normal breast cells MCF-10A; type: cell-based; conditions: Homo sapiens, MCF-10A; MTT, 48 h, normal breast cells; read-out: IC50 (μM) ± SD MCF-10A
Documented IC50 across a set of compounds
ATTRIBUTE MEASURED: IC50

INSERT INTO results (compound, result) VALUES
  ('COC(=O)C(NC(=O)CNC(=O)Cn1nc(Cc2ccccc2)c2ccccc2c1=O)C(C)C (stereo not shown) [Compound 11d]', '39.4 µM'),
  ('C#Cc1cccc(Nc2ncnc3cc(OCCOC)c(OCCOC)cc23)c1 [Erlotinib, reference compound]', '30.9 µM'),
  ('Nc1cc(=O)[nH]n1C(=O)CNC(=O)Cn1nc(Cc2ccccc2)c2ccccc2c1=O [Compound 12d]', '41.6 µM'),
  ('C/C(=N\NC(=O)CNC(=O)Cn1nc(Cc2ccccc2)c2ccccc2c1=O)c1ccco1 [Compound 12c]', '43.6 µM');

Values were extracted from paper PMC10375784.
